Form field: IC50 (one value per entry).
- Target System: serotonin transporter (SERT) (Rattus norvegicus)
- Construct: Freshly removed whole brain minus cerebellum and caudate was homogenized; from tissue; host or cells: rat whole brain minus cerebellum and caudate, synaptosomes
- Sequence (P31652 whole entry): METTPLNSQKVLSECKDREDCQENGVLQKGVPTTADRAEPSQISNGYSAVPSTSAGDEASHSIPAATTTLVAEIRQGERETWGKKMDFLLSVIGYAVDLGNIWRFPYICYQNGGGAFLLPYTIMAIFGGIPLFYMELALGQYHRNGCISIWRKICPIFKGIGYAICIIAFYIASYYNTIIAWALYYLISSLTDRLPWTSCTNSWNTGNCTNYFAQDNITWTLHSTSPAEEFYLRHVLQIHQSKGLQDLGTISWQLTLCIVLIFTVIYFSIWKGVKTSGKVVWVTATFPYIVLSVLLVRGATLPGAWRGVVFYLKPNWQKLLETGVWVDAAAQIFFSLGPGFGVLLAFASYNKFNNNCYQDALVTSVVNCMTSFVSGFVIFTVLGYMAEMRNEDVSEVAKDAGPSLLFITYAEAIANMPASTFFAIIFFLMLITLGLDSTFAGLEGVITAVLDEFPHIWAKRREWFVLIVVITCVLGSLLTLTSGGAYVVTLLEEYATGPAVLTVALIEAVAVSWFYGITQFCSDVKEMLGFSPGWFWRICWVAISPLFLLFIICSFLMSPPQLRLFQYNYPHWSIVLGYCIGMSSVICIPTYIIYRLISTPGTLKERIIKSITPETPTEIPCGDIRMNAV
- Experiment Summary: Serotonin reuptake ([^3H]serotonin uptake) inhibition in rat brain synaptosomes
- Type: biochemical
- Particulars: mean ± S.D., n = 3; read-out: SERT Uptake IC50
Kindly write the number and append the unit.

Check out these entries, answers already filled in.
c1ccc(C(CNc2nc(-c3cnc4nccn4c3)nc3ccccc23)c2ccncc2)cc1 (stereo not shown)
11 nM
CS(=O)(=O)Nc1ccc(-c2nc(NCC(c3ccccc3)c3ccccc3)c3ccccc3n2)c(Cl)c1
22 nM
Cc1cc2nccn2cc1-c1nc(NCC(c2ccccc2)c2ccc[nH]2)c2ccccc2n1 (stereo not shown)
3.1 nM

Turning now to a further record.
For record Cl.Fc1ccc2c(NCC(c3ccccc3)c3ccccc3)nc(-c3ccc4nccn4c3)nc2c1 [compound 124, Hydrochloride] the listed IC50 is 25 nM
